Each entry below carries its reported pEC50.
System: HCV 2a JFH-1 Rluc cells (dicistronic genotype 2a JFH-1 replicon, RLuc reporter)
Experiment description: microbe, parasite or virus in culture
Type: cell-based
Reported conditions: Hepatitis C virus, genotype 2a JFH-1 RLuc replicon; read-out: 2a JFH
Method: Evaluation of cell-based anti-HCV activity: Antiviral potency (EC50) was determined using a Renilla luciferase (RLuc)-based HCV replicon reporter assay. […] 72 hours later, cells were lysed and Renilla luciferase activity quantified as recommended by the manufacturer (Promega-Madison, Wis.). […]
pEC50: −log10 of the molar value.

Worked cases, answers included:
{"Compound": "CC[C@H](C)[C@H](NC(=O)OC)C(=O)N1C[C@@H](COC)C[C@H]1c1ncc(-c2ccc3c(c2)COc2cc4c(ccc5nc([C@@H]6CC[C@H](C)N6C(=O)[C@@H](NC(=O)OC)C(C)C)[nH]c54)cc2-3)[nH]1 [Example 619]", "pEC50": "9.00 to 12.00"}
{"Compound": "COC[C@H]1C[C@@H](c2ncc(-c3ccc4c(c3)COc3cc5c(ccc6nc([C@@H]7C[C@H](C)CN7C(=O)[C@@H](NC(=O)OC)C(C)C)[nH]c65)cc3-4)[nH]2)N(C(=O)[C@H](NC(=O)OC)c2ccccc2)C1 [Example 622]", "pEC50": "9.00 to 12.00"}
{"Compound": "COC[C@H]1C[C@@H](c2ncc(-c3cc4c5c(c3)OCc3cc(-c6cnc([C@@H]7C[C@H](COC)CN7C(=O)[C@@H](NC(=O)OC)C(C)C)[nH]6)cc(c3-5)OC4)[nH]2)N(C(=O)[C@@H](NC(=O)OC)C(C)C)C1 [Example 513]", "pEC50": "9.00 to 12.00"}

Now turn to the next compound.
Please report the recorded pEC50 for CCO[C@H]1C[C@@H](c2nc3ccc4cc5c(cc4c3[nH]2)OCc2cc(-c3cnc([C@@H]4CCCN4C(=O)[C@H](NC(=O)OC)c4ccccc4)[nH]3)ccc2-5)N(C(=O)[C@@H](NC(=O)OC)C(C)C)C1 [Example 552] .
9.00 to 12.00

###

System: HCV 3a RLuc cells (NS5A chimeric genotype 1b Con1 replicon with consensus genotype 3a NS5A gene)
Experiment description: microbe, parasite or virus in culture
Format: cell-based
Reported conditions: read-out: 3a; Table 2; genotype 3a NS5A chimeric replicon
pEC50: −log10 of the molar value.
Parameter: pEC50. Scope: all listed entries.

{"Smiles code": "COC(=O)N[C@H](C(=O)N1CCC[C@H]1c1ncc(-c2ccc(-c3ccc4cc(-c5cnc([C@@H]6CCCN6C(=O)[C@H](NC(=O)OC)c6ccccc6)[nH]5)ccc4c3)cc2)[nH]1)C(C)C", "pEC50": "9.00 to 12.00"}

Now examine the next entry.
pEC50 for COC(=O)N[C@H](C(=O)N1CCC[C@H]1c1ncc(-c2ccc3cc(-c4ccc(-c5cnc([C@@H]6CCCN6C(=O)[C@H](NC(=O)OC)c6ccccc6)[nH]5)cc4)ccc3c2)[nH]1)C(C)C ?
9.00 to 12.00

###

Tested on: HCV 2a JFH-1 Rluc cells (dicistronic genotype 2a JFH-1 replicon, RLuc reporter)
Experiment description: microbe, parasite or virus in culture
Format: cell-based
Reported conditions: Hepatitis C virus, genotype 2a JFH-1 RLuc replicon; read-out: 2a JFH
Attribute measured: EC50

{"Smiles code": "COC[C@H]1C[C@@H](c2nc3ccc4cc(-c5ccc6c(ccc7nc([C@@H]8C[C@H](C)CN8C(=O)[C@@H](NC(=O)OC)C(C)C)[nH]c76)c5)ccc4c3[nH]2)N(C(=O)[C@H](N)c2ccccc2)C1", "Study target": "HCV 2a JFH-1 Rluc cells (dicistronic genotype 2a JFH-1 replicon, RLuc reporter)", "EC50": "0.001 to 0.999 nM"}

// next item, EC50 requested
Look at this compound and give its reported EC50. COC[C@H]1C[C@@H](c2nc3ccc4cc(-c5ccc6c(ccc7nc([C@@H]8CCCN8C(=O)[C@@H](NC(=O)OC)C(C)C)[nH]c76)c5)ccc4c3[nH]2)N(C(=O)[C@H](NC(=O)OC)c2ccccc2)C1
0.001 to 0.999 nM

###

# Lookup of reported EC50 keyed by entry
Test system: HCV 1a RLuc cells (dicistronic genotype 1a H77 replicon, RLuc reporter)
Experiment description: microbe, parasite or virus in culture
Format: cell-based
Reported conditions: Hepatitis C virus, genotype 1a H77 RLuc replicon; read-out: 1a

Reference set, count: 5
{"Compound": "COC[C@H]1C[C@@H](c2nc3ccc4cc5c(cc4c3[nH]2)OCc2cc(-c3ccc4nc([C@@H]6CCCN6C(=O)[C@@H](NC(=O)OC)C(C)C)[nH]c4c3)ccc2-5)N(C(=O)[C@H](NC(=O)OC)c2ccccc2)C1 [Example 556]", "Attribute measured": "EC50", "Result": "0.001 to 0.999 nM"}
{"Compound": "COC[C@H]1C[C@@H](c2nc3ccc4cc(-c5ccc6c(ccc7nc([C@@H]8C[C@H](SC)CN8C(=O)[C@@H](NC(=O)OC)C(C)C)[nH]c76)c5)ccc4c3[nH]2)N(C(=O)[C@H](NC(=O)OC)c2ccccc2)C1 [Example 546]", "Attribute measured": "EC50", "Result": "0.001 to 0.999 nM"}
{"Compound": "COC(=O)N[C@H](C(=O)N1[C@@H](C)CC[C@H]1c1nc2ccc3cc4c(cc3c2[nH]1)OCc1cc(-c2cnc([C@@H]3C[C@H](C)CN3C(=O)[C@@H](NC(=O)OC)[C@@H](C)OC)[nH]2)ccc1-4)C(C)C [Example 612]", "Attribute measured": "EC50", "Result": "0.001 to 0.999 nM"}
{"Compound": "COC[C@H]1C[C@@H](c2ncc(-c3ccc(-c4ccc(-c5cnc([C@@H]6CCCN6C(=O)[C@@H](NC(=O)OC)C(C)C)[nH]5)cc4)cc3)[nH]2)N(C(=O)[C@H](NC(=O)C2CC2)c2ccccc2)C1 [Example 506]", "Attribute measured": "EC50", "Result": "0.001 to 0.999 nM"}
{"Compound": "COC[C@H]1C[C@@H](c2nc3ccc4cc5c(cc4c3[nH]2)OCc2cc(-c3cnc([C@@H]4CCCN4C(=O)[C@H](NC(=O)C4CC4)c4ccccc4)[nH]3)ccc2-5)N(C(=O)[C@@H](NC(=O)OC)C(C)C)C1 [Example 510]", "Attribute measured": "EC50", "Result": "0.001 to 0.999 nM"}

Please provide the recorded EC50 for COC[C@H]1C[C@@H](c2nc3ccc4cc5c(cc4c3[nH]2)OCc2cc(-c3cnc([C@@H]4C[C@H]6C[C@H]6N4C(=O)[C@@H](NC(=O)OC)C(C)C)[nH]3)ccc2-5)N(C(=O)[C@H](NC(=O)OC)c2ccccc2)C1 [Example 539] , tested on HCV 1a RLuc cells (dicistronic genotype 1a H77 replicon, RLuc reporter).
0.001 to 0.999 nM

Next compound: CC[C@H](C)[C@H](NC(=O)OC)C(=O)N1C[C@@H](C)C[C@H]1c1ncc(-c2ccc3c(c2)COc2cc4c(ccc5nc([C@@H]6C[C@H](COC)CN6C(=O)[C@@H](NC(=O)OC)[C@@H](C)OC)[nH]c54)cc2-3)[nH]1 [Example 641]
0.001 to 0.999 nM

Let us now turn to COC[C@H]1C[C@@H](c2nc3ccc4cc5c(cc4c3[nH]2)OCc2cc(-c3ccc4nc([C@@H]6CCCN6C(=O)[C@@H](NC(=O)OC)C(C)C)[nH]c4c3)ccc2-5)N(C(=O)[C@@H](NC(=O)OC)C(C)C)C1 [Example 563]
0.001 to 0.999 nM

Field entry: COC[C@H]1C[C@@H](c2nc3ccc4cc(-c5ccc6c(ccc7nc([C@@H]8C[C@H](C)CN8C(=O)[C@@H](NC(=O)OC)C(C)C)[nH]c76)c5)ccc4c3[nH]2)N(C(=O)[C@@H](NC(=O)OC)C(C)C)C1 [Example 568]
0.001 to 0.999 nM

What about COC(=O)N[C@H](C(=O)N1CCC[C@H]1c1ncc(-c2ccc3c(c2)COc2cc4c(ccc5nc([C@@H]6CCCN6C(=O)[C@H](NC(=O)OC)c6ccccc6)[nH]c54)cc2-3)[nH]1)[C@@H](C)OC [Example 588] ?
0.001 to 0.999 nM

Likewise for COC[C@H]1C[C@@H](c2nc3ccc4cc(-c5ccc6c(ccc7nc([C@@H]8C[C@H](C)CN8C(=O)[C@@H](NC(=O)OC)C(C)C)[nH]c76)c5)ccc4c3[nH]2)N(C(=O)[C@@H](NC(=O)OC)[C@@H](C)OC)C1 [Example 559] ?
0.001 to 0.999 nM

###

Test system: HCV 3a RLuc cells (NS5A chimeric genotype 1b Con1 replicon with consensus genotype 3a NS5A gene)
Experiment description: microbe, parasite or virus in culture
Type: cell-based
Reported conditions: Hepatitis C virus, read-out: 3a, genotype 3a NS5A chimeric replicon
Description: Evaluation of cell-based anti-HCV activity: Antiviral potency (EC50) was determined using a Renilla luciferase (RLuc)-based HCV replicon reporter assay. […] 72 hours later, cells were lysed and Renilla luciferase activity quantified as recommended by the manufacturer (Promega-Madison, Wis.). […]
Attribute measured: EC50

Examples from the recorded data:
{"Smiles code": "COC[C@H]1C[C@@H](c2nc3ccc4cc(-c5ccc6c(ccc7nc([C@@H]8C[C@H](SC)CN8C(=O)[C@@H](NC(=O)OC)C(C)C)[nH]c76)c5)ccc4c3[nH]2)N(C(=O)[C@H](NC(=O)OC)c2ccccc2)C1", "Result": "0.001 to 0.99 nM"}
{"Smiles code": "COC(=O)N[C@@H](C(=O)N1[C@@H]2C[C@@H]2C[C@H]1c1ncc(-c2cc3c4c(c2)OCc2cc(-c5cnc([C@@H]6C[C@H]7C[C@H]7N6C(=O)[C@H](NC(=O)OC)c6ccccc6)[nH]5)cc(c2-4)OC3)[nH]1)c1ccccc1", "Result": "0.001 to 0.99 nM"}
{"Smiles code": "COC[C@@H]1C[C@@H](c2nc3ccc4cc5c(cc4c3[nH]2)OCc2cc(-c3cnc([C@@H]4CCCN4C(=O)[C@@H](NC(=O)OC)C(C)C)[nH]3)ccc2-5)N(C(=O)[C@H](NC(=O)OC)c2ccccc2)C1", "Result": "0.001 to 0.99 nM"}
{"Smiles code": "O=C(N[C@@H](C(=O)N1CCC[C@H]1c1ncc(-c2cc3c4c(c2)OCc2cc(-c5cnc([C@@H]6CCCN6C(=O)[C@H](NC(=O)c6ccncn6)c6ccccc6)[nH]5)cc(c2-4)OC3)[nH]1)c1ccccc1)c1ccncn1", "Result": "0.001 to 0.99 nM"}
{"Smiles code": "CC[C@H](C)[C@H](NC(=O)OC)C(=O)N1[C@@H](C)CC[C@H]1c1ncc(-c2ccc3c(c2)COc2cc4c(ccc5nc([C@@H]6C[C@H](COC)CN6C(=O)[C@H](NC(=O)OC)c6ccccc6)[nH]c54)cc2-3)[nH]1", "Result": "0.001 to 0.99 nM"}
{"Smiles code": "COC[C@H]1C[C@@H](c2nc3ccc4cc(-c5ccc6c(ccc7nc([C@@H]8CCCN8C(=O)[C@@H](NC(=O)OC)C(C)C)[nH]c76)c5)ccc4c3[nH]2)N(C(=O)[C@H](NC(=O)C2CC2)c2ccccc2)C1", "Result": "0.001 to 0.99 nM"}

Value lookup for EC50; key = COC(=O)N[C@H](C(=O)N1[C@@H]2C[C@@H]2C[C@H]1c1ncc(-c2cc3c4c(c2)OCc2cc(-c5cnc([C@@H]6C[C@H]7C[C@H]7N6C(=O)[C@H](NC(=O)OC)c6ccccc6)[nH]5)cc(c2-4)OC3)[nH]1)C(C)C
0.001 to 0.99 nM

Next molecule up: COC[C@H]1C[C@@H](c2nc3ccc4cc5c(cc4c3[nH]2)OCc2cc(-c3cnc([C@@H]4CC[C@H](C)N4C(=O)[C@@H](NC(=O)OC)C(C)C)[nH]3)ccc2-5)N(C(=O)[C@@H](NC(=O)OC)C(C)C)C1
0.001 to 0.99 nM

Thanks! And COC[C@H]1C[C@@H](c2ncc(-c3ccc4c(c3)COc3cc5c(ccc6nc([C@@H]7C[C@H](COC)CN7C(=O)[C@@H](NC(=O)OC)C(C)C)[nH]c65)cc3-4)[nH]2)N(C(=O)[C@@H](NC(=O)OC)C(C)C)C1 ?
0.001 to 0.99 nM

Param item: COC[C@H]1C[C@@H](c2nc3ccc4cc(-c5ccc6c(ccc7nc([C@@H]8C[C@H]9C[C@H]9N8C(=O)[C@H](NC(=O)OC)c8ccccc8)[nH]c76)c5)ccc4c3[nH]2)N(C(=O)[C@@H](NC(=O)OC)C(C)C)C1
0.001 to 0.99 nM

Repeat for the following molecule: COC[C@H]1C[C@@H](c2nc3ccc4cc(-c5ccc6c(ccc7nc([C@@H]8CCCN8C(=O)[C@@H](NC(=O)OC)C(C)C)[nH]c76)c5)ccc4c3[nH]2)N(C(=O)[C@H](NC(=O)OC)c2ccccc2)C1
0.001 to 0.99 nM

Try the molecule O=C(N[C@@H](C(=O)N1CCC[C@H]1c1ncc(-c2cc3c4c(c2)OCc2cc(-c5cnc([C@@H]6CCCN6C(=O)[C@H](NC(=O)C6CCOCC6)c6ccccc6)[nH]5)cc(c2-4)OC3)[nH]1)c1ccccc1)C1CCOCC1
0.001 to 0.99 nM

Source listed as patent US10344019B2.
